These measurements were taken from paper PMC8850458.

assay: WST-based cell viability assay in LNCaP cells; conditions: human, LNCaP cells
property: IC50 (µM)
Report the figure in µM without appending any unit label.

Note to self: IC50 recorded for C=CC(C)(O)C(=O)N(C(=O)NCCOCCOCCNCC(O)COc1ccc(OCCc2ccccc2)c(OCCc2ccccc2)c1)c1cc(Cl)cc(Cl)c1 (stereo not shown) was 4.7

====

As shown below, each of these molecules has a reported Tau normalized to GAPDH and control, AVG % value.
biological target: tauP301L (Homo sapiens, UniProt P10636, P618L); test: WB degradation of tauP301L in SH-SY5Y-tauP301L cells; assay type: cell-based; conditions: densitometry, dosage degradation; SH-SY5Y-Tau-TiFC; 10 nM; average of N=3
Sequence (P10636 1-441 isoform P10636-8 P301L): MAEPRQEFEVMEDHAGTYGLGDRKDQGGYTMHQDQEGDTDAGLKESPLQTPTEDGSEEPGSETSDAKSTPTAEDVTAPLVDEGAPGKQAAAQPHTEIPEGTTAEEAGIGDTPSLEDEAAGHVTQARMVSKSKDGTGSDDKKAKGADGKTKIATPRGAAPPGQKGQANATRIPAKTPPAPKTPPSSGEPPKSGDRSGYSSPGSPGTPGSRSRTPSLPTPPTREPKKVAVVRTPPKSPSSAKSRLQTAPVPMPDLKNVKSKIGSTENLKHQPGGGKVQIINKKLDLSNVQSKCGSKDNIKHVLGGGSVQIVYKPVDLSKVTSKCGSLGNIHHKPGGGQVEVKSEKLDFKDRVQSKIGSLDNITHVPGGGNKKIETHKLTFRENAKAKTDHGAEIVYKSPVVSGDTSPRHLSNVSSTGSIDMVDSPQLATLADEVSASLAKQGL
Report the figure in % without appending any unit label.

# annotated cases, reported Tau normalized to GAPDH and control, AVG % shown
O=C(CCCc1ccccc1)NCCOCCOCCOCCNCc1ccc(OCc2ccccc2)c(OCc2ccccc2)c1    19.6838
O=C(O)CCCc1ccccc1    93.9777

Note to self: Tau normalized to GAPDH and control, AVG % recorded for Brc1cccc(-c2cc(-c3ccc4c(c3)OCO4)[nH]n2)c1 [Anle138b, reference compound] was 101.352

Note to self: Tau normalized to GAPDH and control, AVG % recorded for Fc1ccc(COc2cccc(CNCCOCCOCCNc3cccc(-c4cc(-c5ccc6c(c5)OCO6)n[nH]4)c3)c2)cc1 was 39.4372
